Listed below are compounds with IC50 for Prostaglandin G/H synthase 2 (Ovis aries, UniProt P79208), each taken from published literature.
Strictly below 0.2 µM in IC50: condition met. Otherwise: condition not met.

COMPOUND | LABEL VALUE
C[C@]1(CCO)CC=C2C(CCC3[C@](C)(C(=O)O)CCC[C@@]23C)C1 (stereo partly drawn) | condition not met

Say whether its IC50 is strictly beneath 0.2 µM. Entry: "CS(=O)(=O)c1ccc(-n2cc(C(F)(F)F)nc2-c2nnc(-c3ccccc3)s2)cc1"
condition met

Field: below-cutoff. Rule: recorded IC50 strictly less than 0.2 µM. Subject: "COCOCC[C@@]1(C)CC=C2[C@@H](CC[C@@H]3[C@](C)(C(=O)O)CCC[C@@]23C)C1"
condition not met

Does this compound meet the criterion IC50 < 0.2 µM? "CS(=O)(=O)c1ccc(-c2csc(=O)n2-c2ccc(Cl)cc2)cc1"
condition not met

Hello, is IC50 of the following compound strictly smaller than 0.2 µM? "NS(=O)(=O)c1ccc(-c2csc(=O)n2-c2cccc(F)c2)cc1"
condition not met

Strictly below 0.2 µM: is that where IC50 of "COc1ccc2c(Cc3ccccc3F)c3n(c(=O)c2c1OC)CCc1cc2c(cc1-3)OCO2" sits?
condition not met

Does "NS(=O)(=O)c1ccc(-n2cc(C(F)(F)F)nc2-c2nnc(-c3ccccc3)s2)cc1" have IC50 strictly under 0.2 µM?
condition met

is_below(IC50, 0.2 µM) for "NS(=O)(=O)c1ccc(-c2csc(=S)n2-c2ccc(F)cc2)cc1" ?
condition not met

IC50 under 0.2 µM? Item: CC(=O)OCCC1(C)CC=C2C(CCC3C(C)(C(=O)O)CCCC23C)C1 (stereo not drawn)
condition not met
